The measurements presented in this section are drawn from patent US8129398B2.

- TARGET: HIV-integrase (Human immunodeficiency virus type 1 group M subtype B, UniProt P12497)
- Construct: Recombinant integrase (0.26 ng) was incubated with the beads
- ASSAY_SUMMARY: HIV-Integrase Inhibition Activity (SPA bead integration assay with P33 labeled target DNA)
- ASSAY_CONDITIONS: representative compounds
READOUT: Ki (nM)
Field: numeric (nM). Do not append units.

- O=C(NCc1ccc(F)cc1)c1nc2n(c(=O)c1O)CC1CC2CN(C(=O)OCc2ccccc2)C1 (stereo not shown) [Example 6]: 12
- CC(=O)NC12CCC(CC1)Cn1c2nc(C(=O)NCc2ccc(F)cc2-n2ncnc2C)c(O)c1=O [Example 38]: 9

// query Look up Ki for this compound: Cc1cc(CNC(=O)c2nc3n(c(=O)c2O)CC2CCC3(NS(=O)(=O)CC3CC3)CC2)ccc1F [Example 306]
// result 860
